Record form. Attribute: concentration at 24 h. Fill in for each entry.
Assay: Pharmacokinetic study after single oral administration
Format: in vivo, Rat
Conditions: male, Sprague-Dawley (SD), plasma; Rat, oral, 20 mg/kg, 24 h; read-out: Plasma Conc.
Provide the reading as a plain figure in ng/mL.

Enquiry: Entry under review: Cc1cc(NCCCNc2ccnc3cc(Cl)ccc23)nc(N2CCN(C)CC2)n1 [comp. ex. 2] . Reported concentration at 24 h?
Return: 5.92

Enquiry: Entry under review: Clc1ccc2c(NCCN3CCN(c4ccnc(-n5ccnc5)n4)CC3)ccnc2c1 [Formula (II)] . Reported concentration at 24 h?
Return: 16.8

Enquiry: Entry under review: Cc1cc(NCCCNc2ccnc3cc(Cl)ccc23)nc(N2CCCC2)n1 [comp. ex. 3] . Reported concentration at 24 h?
Return: 3.53

* * *

Nurr1-LBD (Homo sapiens, UniProt P43354): reported IC50 for various compounds.
Sequence (P43354 360-595 limits assumed): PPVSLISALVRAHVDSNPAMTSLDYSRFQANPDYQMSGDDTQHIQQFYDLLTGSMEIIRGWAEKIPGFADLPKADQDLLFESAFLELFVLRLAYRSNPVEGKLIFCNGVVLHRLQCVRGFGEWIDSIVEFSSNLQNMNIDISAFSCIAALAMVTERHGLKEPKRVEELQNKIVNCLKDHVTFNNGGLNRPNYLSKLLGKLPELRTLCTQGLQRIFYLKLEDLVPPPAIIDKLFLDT
Provide the reading as a plain figure in µM.

Enquiry: Entry CCN1CCN(c2cc(NCCNc3ccnc4cc(Cl)ccc34)nc(N3CCN(CC)CC3)n2)CC1 [SPV-94] , system Nurr1-LBD (Homo sapiens, UniProt P43354): what IC50 was measured?
Return: 0.05

Enquiry: Entry CCN(CC)CCCC(C)Nc1ccnc2cc(Cl)ccc12 (centres unmarked) [CQ, chloroquine] , system Nurr1-LBD (Homo sapiens, UniProt P43354): what IC50 was measured?
Return: 1

* * *

Tested on: Nurr1-LBD and full-length Nurr1
Test: Luciferase activity assay (Nurr1 transactivation) in MN9D cells
Format: cell-based, murine
pEC50: −log10 of the molar value.
Measurement name: pEC50

Enquiry: Entry under review: CCN1CCN(c2cc(NCCNc3ccnc4cc(Cl)ccc34)nc(N3CCN(CC)CC3)n2)CC1 . Reported pEC50?
Return: ~7.30
